Measured Target: GST-LXRβ ligand-binding domain (Homo sapiens)
Construct: amino acids 156-461; NP009052
Sequence (P55055 156-460 limits assumed): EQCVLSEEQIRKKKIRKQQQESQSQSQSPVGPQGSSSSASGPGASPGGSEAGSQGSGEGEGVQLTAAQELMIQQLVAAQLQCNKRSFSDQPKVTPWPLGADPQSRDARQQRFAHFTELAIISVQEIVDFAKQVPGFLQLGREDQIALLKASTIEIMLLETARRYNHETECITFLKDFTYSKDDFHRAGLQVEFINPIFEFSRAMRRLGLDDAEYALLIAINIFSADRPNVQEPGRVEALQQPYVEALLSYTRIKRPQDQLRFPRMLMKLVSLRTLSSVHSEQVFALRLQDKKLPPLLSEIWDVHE
Assay Text: TR-FRETβ activity assay (NCoA3 coactivator peptide recruitment)
Measurement Parameters: 1 μM 24(S)-25-epoxycholesterol prestimulation
Attribute Measured: EC50

Examples with their reported EC50 follow.
Cc1ccc(S(=O)(=O)n2c(-c3cccc(-c4cccc(C(C)(C)C(=O)O)c4)c3)c(-c3ccsc3C#N)c3ccccc32)cc1 | 1000 to 10000 nM
N#Cc1cccc(C#N)c1-c1c(-c2cccc(-c3ccc(C(=O)O)cc3F)c2)n(S(=O)(=O)c2ccc(C(F)F)cc2)c2ccc(F)cc12 | < 100 nM
Cc1ccc(S(=O)(=O)n2c(-c3cccc(-c4ccc(C(C)(C)C(=O)O)c(S(C)(=O)=O)c4)c3)c(-c3ccsc3C#N)c3cc(F)ccc32)cc1 | 100 to 1000 nM

// recorded EC50 for `CC1CCN(S(=O)(=O)n2c(-c3cccc(N4CC(C(=O)O)C4)c3)c(-c3ccsc3C#N)c3cc(F)ccc32)CC1` : 1000 to 10000 nM

Documented EC50 of `COc1ccc(S(=O)(=O)n2c(-c3ccccc3)c(-c3ccsc3C)c3ccccc32)cc1` : 1000 to 10000 nM

The value of EC50 measured for the compound `COc1ccc(S(=O)(=O)n2c(-c3ccccc3)c(C3=C(C#N)c4ccccc4CC3)c3ccccc32)cc1` turned out to be > 10000 nM

Per the records, this compound ( `Cc1ccc(S(=O)(=O)n2c(-c3cccc(N4CC(C(=O)O)C4)c3)c(-c3ccsc3CCO)c3cc(F)ccc32)cc1` ) has EC50 equal to 1000 to 10000 nM

----------
Measured Target: LXRβ (Homo sapiens)
Sequence (P55055 1-460): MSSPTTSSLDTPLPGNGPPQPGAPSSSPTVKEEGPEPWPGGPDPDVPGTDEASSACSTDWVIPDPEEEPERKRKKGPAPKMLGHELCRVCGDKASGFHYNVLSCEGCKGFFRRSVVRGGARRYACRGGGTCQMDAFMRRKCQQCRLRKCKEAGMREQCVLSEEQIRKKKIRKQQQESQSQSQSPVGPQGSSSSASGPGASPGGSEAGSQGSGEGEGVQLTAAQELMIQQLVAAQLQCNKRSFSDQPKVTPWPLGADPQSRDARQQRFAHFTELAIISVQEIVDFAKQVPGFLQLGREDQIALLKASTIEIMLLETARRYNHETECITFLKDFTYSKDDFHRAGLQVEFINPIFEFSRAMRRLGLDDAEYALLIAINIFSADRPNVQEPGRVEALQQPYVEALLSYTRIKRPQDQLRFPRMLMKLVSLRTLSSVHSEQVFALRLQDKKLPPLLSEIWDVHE
Assay Text: LXR Gal4 reporter transient transfection assay (mammalian two-hybrid, HEK293), LXRβ
Type: cell-based
Design: LXRβ (amino acids 156-461); expressed in transfected cells; host or cells: HEK293
Measurement Parameters: full length (FL) LXRβ, HEK293; read-out: FL-M2H Gal4β
Attribute Measured: EC50

Cc1ccc(S(=O)(=O)n2c(-c3cccc(N4CC(C(=O)O)C4)c3)c(-c3ccsc3C#N)c3cc(C)ccc32)cc1 | < 100 nM
Cc1ccc(S(=O)(=O)n2c(-c3cccc(-c4ccc(CN)cc4Cl)c3)c(-c3ccsc3C#N)c3cc(F)ccc32)cc1 | 100 to 1000 nM
Cc1ccc(S(=O)(=O)n2c(-c3cccc(-c4ccc(CN5CCN(C)CC5)cc4)c3)c(-c3ccsc3C#N)c3cc(F)ccc32)cc1 | < 100 nM
N#Cc1ccccc1-c1c(-c2cccc(-c3ccc(C(=O)O)c4c3OCO4)c2)n(S(=O)(=O)c2ccc(C(F)F)cc2)c2ccc(F)cc12 | < 100 nM
Cc1ccc(S(=O)(=O)n2c(-c3cccc(C4CC4C(=O)O)c3)c(-c3ccsc3C#N)c3cccnc32)cc1 (stereo not shown) | 100 to 1000 nM

The recorded EC50 for `Cc1ccc(S(=O)(=O)n2c(-c3cccc(N4CC(C(=O)O)C4)c3)c(-c3ccsc3C#N)c3cc(F)c(F)cc32)cc1` is < 100 nM

Measured EC50, N#Cc1sccc1-c1c(-c2cccc(C3CC3C(=O)NO)c2)n(S(=O)(=O)c2ccc(Cl)cc2)c2ccccc12 (stereo not shown) : < 100 nM

Briefly, EC50 measured for `N#Cc1cccc(C#N)c1-c1c(-c2cccc(Br)c2)n(S(=O)(=O)c2ccc(C(F)F)cc2)c2ccc(F)cc12` : < 100 nM

The recorded EC50 for entry `Cc1ccc(S(=O)(=O)n2c(-c3cccc(N4CC(C(=O)O)C4)c3)c(-c3ccsc3C#N)c3cc(F)c(Cl)cc32)cc1` equals < 100 nM

Entry under test: `CC(=O)NS(=O)(=O)c1ccc(-c2cccc(-c3c(-c4c(C#N)cccc4C#N)c4cc(F)ccc4n3S(=O)(=O)c3ccc(C(F)F)cc3)c2)c(Cl)c1` . Its EC50 was < 100 nM

Provenance of the data: patent US20260083704A1
